- target under test: Calmodulin-1 (Homo sapiens) (UniProt P0DP23)
- assay summary: CALM1 binders on microarrays, EGTA buffer, profiling panel, biochemical, small-molecule microarray, Cy5-labelled CALM1 (AID 1111);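 note: labelled calmodulin applied in Tris saline Tween buffer holding calcium plus EGTA and DTT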
- test settings: Cy5-CALM1 binding fluorescence, higher = more signal

[
  {
    "compound": "C[N+](C)(C)CCCCCCNC(=O)[C@@H]1C[C@@H]2C(=O)N[C@@H](Cc3ccccc3)C(=O)N2[C@@H]1c1ccc(O)cc1",
    "composite z-score": -0.193
  },
  {
    "compound": "CC(C)CNC(=O)[C@@H]1c2ccccc2C(=O)N(CC23CC4CC(CC(C4)C2)C3)[C@H]1c1ccc(CO)cc1",
    "composite z-score": 0.725
  },
  {
    "compound": "CCOC(=O)C[C@H]1[C@H](OC(=O)c2ccc(C(=O)c3ccccc3)cc2)[C@@H](NC(=O)c2ccc3ccccc3c2)c2cc(OCCCO)ccc2N1C(=O)c1ccc2ccccc2n1",
    "composite z-score": 0.794
  },
  {
    "compound": "CC(C)C[C@H]1NC(=O)[C@@H](C)NC(=O)[C@@]23C(=O)N[C@@H](Cc4ccccc4)C2[C@H](C)[C@@]2(C)O[C@H]2C3/C=C/C/C=C\\CNC1=O (some centres not stated)",
    "composite z-score": -0.596
  },
  {
    "compound": "C=CCC(OC(C)=O)[C@@H]1[C@@H](N(Cc2ccc(-c3ccccc3)cc2)C(=O)c2ccc(-c3ccccc3)cc2)c2cc(OCCCO)ccc2N1C(=O)c1ccc2ccccc2n1 (some centres not stated)",
    "composite z-score": 0.19
  },
  {
    "compound": "CN(C)C(=O)[C@@]1(CCS(=O)(=O)c2ccccc2)N=C(c2ccc(OCCCO)cc2)O[C@H]1c1ccccc1N=[N+]=[N-]",
    "composite z-score": -0.038
  },
  {
    "compound": "COCCOC(=O)N1C(=O)[C@@]2(c3cc(C#CCCO)ccc31)[C@H](c1ccccc1OCCO)N1[C@H](c3ccccc3)[C@H](c3ccccc3)OC(=O)[C@H]1[C@@H]2C(=O)N1CCc2cc(OC)c(OC)cc2C1",
    "composite z-score": 1.07
  },
  {
    "compound": "CCCCC(O)C1C=CC2C(=O)NC(=O)C2N1Nc1ccccn1 (configuration not stated)",
    "composite z-score": -0.0937
  },
  {
    "compound": "COCC(=C=CC[C@@H](O)c1ccc(OCCO)cc1)C[C@@H](O)COCc1ccccc1",
    "composite z-score": 0.0268
  },
  {
    "compound": "O=C1N(CCS(=O)(=O)c2ccccc2)c2ccccc2[C@@H]2OC(c3ccc(OCCCO)cc3)=N[C@]12CCS(=O)(=O)c1ccccc1",
    "composite z-score": 1.67
  },
  {
    "compound": "NCCCC[C@@H]1NC(=O)[C@H]2C[C@@H](C(=O)NCc3ccc(F)cc3)[C@@H](c3ccc(O)cc3)N2C1=O",
    "composite z-score": 1.17
  },
  {
    "compound": "C=C(COC)/C(=C/C[C@H](OC(=O)c1ccncc1)c1cccc(OCCO)c1)c1cnc2ccccc2c1",
    "composite z-score": 0.697
  }
]

----------
- target under test: Dihydroorotate dehydrogenase (quinone), mitochondrial (Plasmodium falciparum (isolate 3D7))
- assay summary: PfDHODH enzyme inhibitors, primary screen, biochemical, C-terminal His tag, absorbance 600 nm (AID 1175);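 note: recombinant parasite enzyme with a five histidine tag at its C terminus; test concentration not given here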
- test settings: DCIP absorbance 600 nm, higher = more signal, called active from +8 up or from −8 down
Activity calls are given as the source filed them.
Here the recorded composite z-score is given for each entry.
measurement kind: composite z-score

[
  {
    "query smiles": "COc1ccc(CCNC(=O)[C@@]2(Sc3ccc(C)cc3)CC(=O)N(Cc3cc(C(F)(F)F)cc(C(F)(F)F)c3)[C@@H]2c2ccc(CO)cc2)cc1",
    "measurement kind": "composite z-score",
    "reported measurement": "-0.61 (inactive)"
  },
  {
    "query smiles": "COc1cccc(C[C@H]2C[C@@H](CO[Si](C(C)C)(C(C)C)C(C)C)N3C(=O)[C@@]4(C(C)=O)O[C@@]23[C@@H]2C(=O)N(C)C(=O)[C@@H]24)c1",
    "measurement kind": "composite z-score",
    "reported measurement": "0.0539 (inactive)"
  },
  {
    "query smiles": "Cc1ccc(F)cc1S(=O)(=O)N[C@@H]1CCN(Cc2ccc3[nH]ccc3c2)C1",
    "measurement kind": "composite z-score",
    "reported measurement": "-0.203 (inactive)"
  }
]
